Tested on: SARS-CoV-2
condition_label: Hela-ACE2 % Positive SARS-CoV-2
outcome_measure: Data Mode

molecule="Cc1cccc(/C=N/Nc2cc(N3CCOCC3)nc(OCCc3ccccn3)n2)c1 [Apilimod, reference compound]" target_or_test_system=SARS-CoV-2 measurement=decreasing
molecule="CCC(CC)COC(=O)[C@H](C)N[P@](=O)(OC[C@H]1O[C@@](C#N)(c2ccc3c(N)ncnn23)[C@H](O)[C@@H]1O)Oc1ccccc1 [Remdesivir, reference compound]" target_or_test_system=SARS-CoV-2 measurement=decreasing

---

Give log10 microsomal CLint at 0.5 μM for every item shown.
assay_notes: in vitro
condition_label: human, microsomes, pH 7.4
Parameter value (number): base-10 log of microsomal CLint at 0.5 μM in µL/min/mg.

Previously resolved entries follow.
compound="C[C@@H](c1cccc2ccccc12)N1CCC(C(=O)NCC2CCCCC2)CC1 (racemic)" measurement=2.32
compound=C[C@H](c1cccc2ccccc12)N1CCC(C(=O)NCc2ccc(Cl)cc2)CC1 measurement=1.99
compound=COc1ccc(CC(=O)NC2CCN([C@@H](C)c3cccc4ccccc34)CC2)cc1 measurement=2.31
compound=COc1ccc(CNC(=O)C2CCN(Cc3cccc4ccccc34)CC2)cc1 measurement=2.07
compound=COc1ccc(CC(=O)NC2CCN([C@H](C)c3cccc4ccccc34)CC2)cc1 measurement=1.95
compound="COc1ccc(CNC(=O)[C@@H]2CCN([C@H](C)c3cccc4ccccc34)C2)cc1 (stereo in doubt)" measurement=2.33

Your task in this section: give log10 microsomal CLint at 0.5 μM for each listed record.
1. CC(c1cccc2ccccc12)N1CCC(C(=O)NCc2ccc(Cl)cc2)CC1 (stereo not drawn)
2. C[C@@H](c1cccc2ccccc12)N1CCC(C(=O)NCc2ccncc2)CC1 (racemic)

1: 2.26; 2: 1.88

Your task in this section: give log10 microsomal CLint at 0.5 μM for each listed record.
1. COc1ccc(CNC(=O)[C@@H]2CCN([C@@H](C)c3cccc4ccccc34)C2)cc1
2. COc1ccc(CNC(=O)[C@H]2CCN([C@H](C)c3cccc4ccccc34)C2)cc1
3. COc1ccc(CNC(=O)C2CCN([C@@H](C)c3ccccc3)CC2)cc1

2.24
2.40
1.39

Your task in this section: give log10 microsomal CLint at 0.5 μM for each listed record.
1. Cc1ccc(CNC(=O)C2CCN([C@H](C)c3cccc4ccccc34)CC2)cc1
2. COc1ccc(CNC(=O)C2CCN([C@H](C)c3ccccc3)CC2)cc1
3. Cc1ccc(CNC(=O)C2CCN([C@@H](C)c3cccc4ccccc34)CC2)cc1 (stereo in doubt)

1. 1.89
2. 1.08
3. 2.18

---

assay_notes: Human liver microsomal stability assay
condition_label: human, liver microsomes, pH 7.4
Give half-life at 0.5 μM for every item shown.
One number for each entry, in min.

Previously resolved entries follow.
compound="COc1ccc(CNC(=O)[C@@H]2CCN([C@H](C)c3cccc4ccccc34)C2)cc1 (stereo in doubt)" measurement=13.1
compound=COc1ccc(CC(=O)NC2CCN([C@@H](C)c3cccc4ccccc34)CC2)cc1 measurement=13.5

Your task in this section: give half-life at 0.5 μM for each listed record.
1. COc1ccc(CNC(=O)[C@@H]2CCN([C@@H](C)c3cccc4ccccc34)C2)cc1
2. Cc1ccc(CNC(=O)C2CCN([C@H](C)c3cccc4ccccc34)CC2)cc1
3. C[C@@H](c1cccc2ccccc12)N1CCC(C(=O)NCC2CCCCC2)CC1 (racemic)

[16.1, 35.4, 13.2]

Your task in this section: give half-life at 0.5 μM for each listed record.
1. COc1ccc(CC(=O)NC2CCN([C@H](C)c3cccc4ccccc34)CC2)cc1
2. Cc1ccc(CNC(=O)C2CCN([C@@H](C)c3cccc4ccccc34)CC2)cc1 (stereo in doubt)
3. C[C@H](c1cccc2ccccc12)N1CCC(C(=O)NCc2ccc(Cl)cc2)CC1

1. 31.4
2. 18.2
3. 28.5
